Details: 313.15 K; 101.33 kPa; Liquid; Falling or rolling sphere viscometry
Please use True for viscosity under 60 mPa·s and False for everything else, ties included.

Lab note: viscosity threshold 60 mPa·s. Does this compound come in strictly under it? `CCCCCC[n+]1cccc(C)c1.O=S(=O)([N-]S(=O)(=O)C(F)(F)F)C(F)(F)F`
True

Lab note: viscosity threshold 60 mPa·s. Does this compound come in strictly under it? `CCC[N+](C)(C)CCO.O=S(=O)([N-]S(=O)(=O)C(F)(F)F)C(F)(F)F`
True

Lab note: viscosity threshold 60 mPa·s. Does this compound come in strictly under it? CCCC[N+](C)(C)C.O=S(=O)([N-]S(=O)(=O)C(F)(F)F)C(F)(F)F [butyltrimethylammonium bis(trifluoromethylsulfonyl)imide]
True

Lab note: viscosity threshold 60 mPa·s. Does this compound come in strictly under it? `CC(=O)OCC[N+](C)(C)C.O=S(=O)([N-]S(=O)(=O)C(F)(F)F)C(F)(F)F`
False

Lab note: viscosity threshold 60 mPa·s. Does this compound come in strictly under it? `O=S(=O)([N-]S(=O)(=O)C(F)(F)F)C(F)(F)F.OCCC[n+]1ccccc1`
True

Lab note: viscosity threshold 60 mPa·s. Does this compound come in strictly under it? `CCCC[N+]1(C)CCCC1.O=S(=O)([N-]S(=O)(=O)C(F)(F)F)C(F)(F)F`
True

* * *

Conditions: 333.15 K; 101.33 kPa; Liquid; Falling or rolling sphere viscometry
parameter: viscosity (mPa·s)
Numbers only, in mPa·s.

See these solved cases before continuing.
{"columns": ["compound", "obs_value"],
 "data": [
  ["O=S(=O)([N-]S(=O)(=O)C(F)(F)F)C(F)(F)F.OCCC[n+]1ccccc1", 29.4],
  ["CCC[N+](C)(C)CCO.O=S(=O)([N-]S(=O)(=O)C(F)(F)F)C(F)(F)F", 30.3],
  ["CCCCCC[n+]1cccc(C)c1.O=S(=O)([N-]S(=O)(=O)C(F)(F)F)C(F)(F)F", 22.5],
  ["CCCC[N+](C)(C)C.O=S(=O)([N-]S(=O)(=O)C(F)(F)F)C(F)(F)F [butyltrimethylammonium bis(trifluoromethylsulfonyl)imide]", 27.9]
]}

We next turn to a different compound, shown below.
Item: `CCCC[N+]1(C)CCCC1.O=S(=O)([N-]S(=O)(=O)C(F)(F)F)C(F)(F)F` | viscosity: 23.5

* * *

Conditions: 343.15 K; 101.33 kPa; Liquid; Falling or rolling sphere viscometry
Would you kindly list viscosity for each of these compounds?
Numbers only, in mPa·s.

See these solved cases before continuing.
{"columns": ["molecule", "parameter", "obs_value"],
 "data": [
  ["CC(=O)OCC[N+](C)(C)C.O=S(=O)([N-]S(=O)(=O)C(F)(F)F)C(F)(F)F", "viscosity", 27.5],
  ["CCCC[N+]1(C)CCCC1.O=S(=O)([N-]S(=O)(=O)C(F)(F)F)C(F)(F)F", "viscosity", 18.6]
]}

We next turn to a different compound, shown below.
Item: `CCC[N+](C)(C)CCO.O=S(=O)([N-]S(=O)(=O)C(F)(F)F)C(F)(F)F` | viscosity: 22.9
